Details: in dichloromethane, 283.95 K

>  <MOLECULE SMILES>
Cc1ccccc1S(N)(=O)=O

>  <solubility (mole fraction)>
0.00233

$$$$

---

Details: in methanol, 279.15 K

>  <MOLECULE SMILES>
Cc1ccccc1S(N)(=O)=O

>  <solubility (mole fraction)>
0.016

$$$$

---

Details: in isobutanol, 273.15 K
PROPERTY MEASURED: solubility (mole fraction)

>  <MOLECULE SMILES>
Cc1ccccc1S(N)(=O)=O

>  <MEASURED>
0.00205

$$$$

---

Conditions: in cyclohexanone, 313.15 K

>  <MOLECULE SMILES>
Cc1ccccc1S(N)(=O)=O

>  <solubility (mole fraction)>
0.143

$$$$
